System: SF-539 CNS
Test: NCI tumour cell line growth inhibition, 48 h; in the data active means GI50 below about 0.43 µM; inactive means the rest
Give one outcome, nothing more. List: active, inactive

Query block: Record request — test call for `Cc1c2cnccc2c(C)c2c1c1cc(O)ccc1n2C(C)C`
Result block: inactive

Query block: Record request — test call for C[C@@H](O)[C@@H](C)Oc1nc(Nc2ccc(S(=N)(=O)C3CC3)cc2)ncc1C(F)(F)F (some centres undefined)
Result block: active

Query block: Record request — test call for Nc1nc(N)c2c(n1)NC(c1sc(Cl)nc1Cl)CC(c1ccccc1)=N2 (centres undefined)
Result block: inactive

Query block: Record request — test call for `OCC#CCOCC#Cc1ccccc1C#CCOCC#CCO`
Result block: inactive

Query block: Record request — test call for `CCN(CC)CCNc1c2ccccc2nc2cccc([N+](=O)[O-])c12`
Result block: active

Query block: Record request — test call for `O=C(COc1ccc(/C=C2\Oc3ccc4ccccc4c3C2=O)cc1)c1ccc([N+](=O)[O-])cc1`
Result block: inactive

Query block: Record request — test call for `C1=N[C@]23C(=N[C@H](N=C2NCc2ccco2)[C@]24N=CNC2=N[C@H]3N=C4NCc2ccco2)N1`
Result block: inactive

Query block: Record request — test call for Nc1nc(=O)n(C2CC(O)C(CO)O2)cc1F (centres undefined)
Result block: active

Query block: Record request — test call for `Cc1cc2c(cc1Cl)SC(N(c1ccccc1Cl)S(=O)(=O)c1ccc(Br)s1)=NS2(=O)=O`
Result block: inactive

----------
Tested on: HCT-15 colon
Test: NCI tumour cell line growth inhibition, 48 h
Measurement Label: TGI

Query block: Look up and report measured TGI for this entry: `COc1ccc(-c2nc(-c3ccc(OC)cc3)n(-c3ccccc3)n2)cc1`
Result block: > 100 µM

Query block: Look up and report measured TGI for this entry: `COc1cccc(N/C(C)=C2/CCOC2=O)c1`
Result block: > 10 µM

Query block: Look up and report measured TGI for this entry: O=C(O)C1C2C=CC(O2)C1C(=O)NCc1cccnc1 (stereo not drawn)
Result block: > 100 µM

Query block: Look up and report measured TGI for this entry: `COc1cccc(/C=N/[N-]C(=O)c2ccncc2)c1[O-].[Mn+2].[OH3+]`
Result block: > 100 µM

Query block: Look up and report measured TGI for this entry: `c1ccc2c(c1)nnn2CNc1ccc(N2CCCCC2)cc1`
Result block: > 100 µM

Query block: Look up and report measured TGI for this entry: `CON(C)c1nc(N)c(C#N)c(C#N)c1C#N`
Result block: > 10 µM

Query block: Look up and report measured TGI for this entry: `N#CCCN(CCC#N)c1ccc(/C=C(/NC(=O)c2cc([N+](=O)[O-])ccc2Cl)C(=O)N=[N+]=[N-])cc1`
Result block: > 100 µM

Query block: Look up and report measured TGI for this entry: `COC(=O)[C@H](CNC(=O)/C=C/c1ccc(OC(C)=O)c(OC(C)=O)c1)NC(=O)/C=C/c1ccc(OC(C)=O)c(OC(C)=O)c1`
Result block: > 100 µM

Query block: Look up and report measured TGI for this entry: COc1ccccc1C1C2=C(COC2=O)Oc2cc3c(cc21)OCO3 (stereo not drawn)
Result block: > 84.6 µM

Query block: Look up and report measured TGI for this entry: `CCn1cnc(C[C@H](NC(=O)[C@H](CCCCNC(=O)Nc2cc(C(F)(F)F)cc(C(F)(F)F)c2)NC(=O)Nc2cc(C(F)(F)F)cc(C(F)(F)F)c2)C(=O)OC)c1`
Result block: > 10 µM

Query block: Look up and report measured TGI for this entry: O=S(=O)(C1=CC(S(=O)(=O)c2ccccc2)COC1)c1ccccc1 (stereo not drawn)
Result block: > 100 µM

Query block: Look up and report measured TGI for this entry: `O=C(Nc1ccc(OS(=O)(=O)c2ccc(F)cc2)cc1)C12CC3CC(CC(C3)C1)C2`
Result block: > 100 µM

Query block: Look up and report measured TGI for this entry: `CCOC(=O)c1oc2c(OC)ccc3c2c1CCC3`
Result block: > 100 µM

----------
For each entry below, report its TGI value.
System: MOLT-4 leukemia
Test: NCI tumour cell line growth inhibition, 48 h

Query block: Look up and report measured TGI for this entry: `O=C1c2ccccc2N=C(c2cc3c(cc2Cl)Sc2nccn2S3(=O)=O)OS(=O)(=O)N1c1ccccc1`
Result block: 32.8 µM

Query block: Look up and report measured TGI for this entry: `Cc1ccc2c(c1)[n+](=O)c(C(=O)c1cccs1)c(C(F)(F)F)n2[O-]`
Result block: 50 µM

Query block: Look up and report measured TGI for this entry: `CCCCCC/C=C/C#CCCCCCCCC(=O)O`
Result block: > 100 µM

Query block: Look up and report measured TGI for this entry: c1ccc(-c2csc3c2-n2cccc2C3N2CCCC2)cc1 (centres undefined)
Result block: > 100 µM

Query block: Look up and report measured TGI for this entry: `COc1ccccc1-n1cnc(N)c1C(=O)c1cc(OC)c(OC)c(OC)c1`
Result block: > 100 µM

Query block: Look up and report measured TGI for this entry: `O=[N+]([O-])c1cc(Br)cc2cc(Cl)cnc12`
Result block: > 100 µM

Query block: Look up and report measured TGI for this entry: `Clc1ccc(Nc2ncco2)cc1Cl`
Result block: > 10 µM

Query block: Look up and report measured TGI for this entry: CC(C)N(C(=O)C12C3C4C1C1C2C3C41C(=O)C(C)(C)C)C(C)C (centres undefined)
Result block: > 100 µM

Query block: Look up and report measured TGI for this entry: CCCCC(C(=O)C(=O)Nc1ccc(C)cc1C)C(=O)C(C)C (centres undefined)
Result block: > 100 µM

----------
System: MALME-3M melanoma
Assay: NCI tumour cell line growth inhibition, 48 h
Measurement Label: TGI

Query block: Look up and report measured TGI for this entry: C[C@@H](O)[C@@H](C)Oc1nc(Nc2ccc(S(=N)(=O)C3CC3)cc2)ncc1C(F)(F)F (stereo partly drawn)
Result block: 0.167 µM

Query block: Look up and report measured TGI for this entry: CN1C(=O)N(C)C2(CCN(CC(CC3OCCO3)c3ccc(F)cc3)CC2)C1=O (stereo not drawn)
Result block: > 100 µM

Query block: Look up and report measured TGI for this entry: `CNC(=O)c1cc(Oc2ccc3nc(NC(=O)Nc4ccc(CN5CCOCC5)c(C(F)(F)F)c4)sc3c2)ccn1`
Result block: 3.98 µM

Query block: Look up and report measured TGI for this entry: `Cc1ccc2nc(N)[nH]c(=O)c2c1Sc1ccncc1`
Result block: > 100 µM

Query block: Look up and report measured TGI for this entry: `O=[N+]([O-])c1cc(Br)cc2cc(Cl)cnc12`
Result block: > 100 µM

Query block: Look up and report measured TGI for this entry: `NC(N)=NN=c1c(=O)c2ccccc2c1=O`
Result block: 3.06 µM

Query block: Look up and report measured TGI for this entry: `Clc1ccc(Nc2ncco2)cc1Cl`
Result block: > 10 µM

Query block: Look up and report measured TGI for this entry: `O/N=C1/CCCC/C1=C/C=C/c1ccccc1`
Result block: 41 µM

Query block: Look up and report measured TGI for this entry: C[C@@H](C1CC[C@H]2[C@@H]3[C@@H]4O[C@@H]4[C@@]4(O)CC=CC(=O)[C@]4(C)[C@H]3C[C@H](O)[C@]12C)[C@H]1C[C@]2(C)O[C@]2(C)C(=O)O1 (stereo partly drawn)
Result block: > 100 µM

Query block: Look up and report measured TGI for this entry: `c1ccc2c(c1)[nH]c1cnc3c4ncccc4[nH]c3c12`
Result block: > 100 µM

Query block: Look up and report measured TGI for this entry: NC1=NN(c2ccccc2)C(=O)C1C(=O)C(=O)Nc1ccc(Cl)cc1 (stereo not drawn)
Result block: > 100 µM

Query block: Look up and report measured TGI for this entry: OCC1NC(COC2OC(CO)C(O)C(O)C2O)C(O)C(O)C1O (stereo not drawn)
Result block: > 100 µM

Query block: Look up and report measured TGI for this entry: `COc1ccc(-n2cc(-c3cc(OC)c(OC)c(OC)c3)nc2SCc2ccc(Cl)cc2)cc1OC`
Result block: > 100 µM

Query block: Look up and report measured TGI for this entry: CCC(=O)OC1CCn2c1nc1c2C(=O)C(C)=C(NC(C)=O)C1=O (stereo not drawn)
Result block: 2.96 µM

Query block: Look up and report measured TGI for this entry: C=C1CCC2CC1C(C(=O)c1c[nH]c3ccccc13)=NC2(C)C (stereo not drawn)
Result block: > 100 µM

Query block: Look up and report measured TGI for this entry: `c1ccc(CN2CCC(=NN3CCCCC3)CC2)cc1`
Result block: > 100 µM

Query block: Look up and report measured TGI for this entry: `N#C/C(=C\c1ccc(O)c(O)c1)c1c(C#N)c(N)nn1-c1ccccc1`
Result block: 26.8 µM

Query block: Look up and report measured TGI for this entry: `Cc1cc(F)c(C(=O)Nc2cccc(-c3nncn3C(C)C)n2)cc1-n1cnc(C2CC2)c1`
Result block: 72.1 µM

Query block: Look up and report measured TGI for this entry: COc1ccc(CN(CCN(C)C)c2ccccn2)cc1 (tested in a mixture with another compound)
Result block: > 100 µM

Query block: Look up and report measured TGI for this entry: `COc1ccc2[nH]c(Cl)c(/C=C3/C(=O)Nc4ccccc43)c2c1`
Result block: 2.26 µM

Query block: Look up and report measured TGI for this entry: `Cn1c(N/N=C/c2ccccc2)nc(-c2ccc3c(c2)OCO3)c(C#N)c1=O`
Result block: > 100 µM

Query block: Look up and report measured TGI for this entry: NC(Cc1ccc(O)cn1)C(=O)NC(C(=O)O)c1ccccc1 (stereo not drawn)
Result block: > 100 µM

Query block: Look up and report measured TGI for this entry: `Cc1ccc(S(=O)(=O)NC(=O)C2S(=O)(=O)OCCOS2(=O)=O)cc1`
Result block: > 100 µM

Query block: Look up and report measured TGI for this entry: `CCOC(=O)/C(Br)=C1\OC(=O)c2ccccc2-c2ccccc21`
Result block: > 100 µM

Query block: Look up and report measured TGI for this entry: `Cc1cc(C)cc(Nc2nnc3n2S(=O)(=O)c2cc(C)c(Cl)cc2S3)c1`
Result block: 13.7 µM

Query block: Look up and report measured TGI for this entry: `O=C(O)c1cc2ccccc2c(Cc2c(O)c(C(=O)O)cc3ccccc23)c1O`
Result block: > 100 µM

Query block: Look up and report measured TGI for this entry: CC1CC(C[N+](=O)[O-])CC2(C1)OCCO2 (stereo not drawn)
Result block: > 100 µM

Query block: Look up and report measured TGI for this entry: c1ccc(-c2csc3c2-n2cccc2C3N2CCCC2)cc1 (stereo not drawn)
Result block: > 100 µM

Query block: Look up and report measured TGI for this entry: `COc1ccccc1N1CCN(CCCCNC(=O)c2ccc([N+](=O)[O-])o2)CC1`
Result block: 7.94 µM

Query block: Look up and report measured TGI for this entry: CC(=O)c1ccc(N2C(=O)C3c4[nH]c5ccccc5c4C4CCC(C(C)(C)C)CC4C3C2=O)cc1 (stereo not drawn)
Result block: 34.4 µM

Query block: Look up and report measured TGI for this entry: CC(=O)OC1C[C@H]2C(OC(=O)c3ccccc3)C3C4(OC(C)=O)COC4C[C@H](OC(C)=O)[C@@]3(C)C(OC(C)=O)[C@H](OC(C)=O)C(=C1C)C2(C)C (stereo partly drawn)
Result block: > 100 µM

Query block: Look up and report measured TGI for this entry: `Cc1ccccc1/C=C/c1csnn1`
Result block: > 100 µM

Query block: Look up and report measured TGI for this entry: CN(C(=O)[C@H](NC(=O)OCc1ccccc1)c1ccccc1)C1CCCCC1N1CCCC1 (stereo partly drawn)
Result block: > 100 µM

Query block: Look up and report measured TGI for this entry: `Oc1cc(O)c2c(c1)O[C@H](c1ccc(O)c(O)c1)[C@@H](O)C2`
Result block: > 100 µM

Query block: Look up and report measured TGI for this entry: `N=c1c2sc3nc4ccccc4n3c2ncn1Cc1ccccc1`
Result block: > 100 µM

Query block: Look up and report measured TGI for this entry: `Cc1noc2cccc(O)c12`
Result block: > 100 µM

Query block: Look up and report measured TGI for this entry: Cc1cccc(C(C)(C)C)c1NC(=O)C(C#N)C1=C(Cl)C(=O)c2ccccc2C1=O (stereo not drawn)
Result block: 31.1 µM

Query block: Look up and report measured TGI for this entry: `COc1ccc(-c2nn(-c3cccc(Cl)c3)cc2/C=C2\NC(=S)N(c3ccc(Cl)cc3)C2=O)cc1`
Result block: 11.3 µM
